B1: FAM107A (parent)
chain: LQRVLEHRRRNQLIKKKKEELEAK

Variants of: B1
Measurement notes: protein stability index of a GFP-peptide fusion (GPS, HEK-293T) (PSI 1-6); higher = more stable;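 further: lentivirally expressed fusions sorted by FACS into six bins by GFP to DsRed ratio, PSI derived from sequencing read proportions per bin multiplied by bin number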
Experimental parameters: c terminus: a fixed tail appended
Please go through the items and note down their protein stability index.
Give bare numbers.

[[record]]
residue_codes = "LQRVLEHRRRNQLIKKKKEVLEAK [E20V]"
quantitative_readout = 3.58

[[record]]
residue_codes = "LQRVLEHRRRNQLIKKKKLELEAK [E19L]"
quantitative_readout = 1.86

[[record]]
residue_codes = "LQRVLEHRRRNLLIKKKKEELEAK [Q12L]"
quantitative_readout = 2.2

[[record]]
residue_codes = "LQRVLEHRRRNQLIKKKKEELEAV [K24V]"
quantitative_readout = 3.91

[[record]]
residue_codes = "LWRVLEHRRRNQLIKKKKEELEAK [Q2W]"
quantitative_readout = 2.06


Dear reader, for each entry below, please note its protein stability index.
1. LQRHLEHRRRNQLIKKKKEELEAK [V4H]
2. LQRVLEHRRRNKLIKKKKEELEAK [Q12K]
3. LQRVLEHGRRNQLIKKKKEELEAK [R8G]

Result:
1. 3.68
2. 4
3. 3.39

For each listed entry, give its protein stability index.
1. LQRVLEHRRRNQLIKHKKEELEAK [K16H]
2. LQRVLEHRRRNTLIKKKKEELEAK [Q12T]
3. LQRVLLHRRRNQLIKKKKEELEAK [E6L]
4. LQRVLEHRRREQLIKKKKEELEAK [N11E]
5. LQRVLEHRRRMQLIKKKKEELEAK [N11M]
6. LQRVLEHRRRNQLIKKKKEELSAK [E22S]

Result:
1. 3
2. 3.66
3. 2.79
4. 4.16
5. 3.4
6. 2.96

Okay, here is my list. What is protein stability index for each of these?
1. LQRVLYHRRRNQLIKKKKEELEAK [E6Y]
2. LQRVLEHRRANQLIKKKKEELEAK [R10A]
3. LQRVLEHDRRNQLIKKKKEELEAK [R8D]

Result:
3
4.01
4.61

Hey, can you go through the list below and give me protein stability index for every item?
1. LQRQLEHRRRNQLIKKKKEELEAK [V4Q]
2. LQRVLEHRPRNQLIKKKKEELEAK [R9P]
3. LQRVLEHRRRNQLIKKKKEMLEAK [E20M]

Result:
1: 4.61; 2: 3.81; 3: 3.5
